Origin of measurements: PubChem BioAssay AID796

# assay.notes: inhibitors of IL-1B driven NFkB p65 nuclear import, primary screen, imaging, HUVEC, IL-1B stimulus, high-content imaging (AID 796);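 also: nuclear over cytoplasmic p65 intensity ratio measured by imaging; 0% = IL-1B stimulated DMSO wells and 100% = unstimulated DMSO wells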
# study.conditions: HUVEC IL-1B NFkB p65 nuclear translocation imaging; at 2 µM; stronger effect = higher value
The campaign covered roughly 94,000 compounds. About 410 (0.44%) were called active. This is one part of a sample in which actives are shown more often than they occur.

- compound: "COc1ccc(S(=O)(=O)Nc2ccc(F)cc2)c(C)c1C"
  unit.abbreviation: "%"
  inhibition: 74
- compound: "O=C(COc1ccc(/C=N/NS(=O)(=O)c2ccccc2)cc1)NCCc1ccccc1"
  unit.abbreviation: "%"
  inhibition: 3.5
- compound: "Cc1ccc(-n2nc3c(c2NC(=O)c2ccc4c(c2)OCO4)CSC3)c(C)c1"
  unit.abbreviation: "%"
  inhibition: 36
- compound: "COc1ccc(OCC(=O)N2CCN(C(=O)COc3ccccc3)CC2)cc1"
  unit.abbreviation: "%"
  inhibition: -0.4
- compound: "CCOC(=O)COc1cc(OCC(=O)OCC)c2c(=O)cc(-c3ccccc3)oc2c1"
  unit.abbreviation: "%"
  inhibition: 5.4
- compound: "O=C(Nc1ccccc1-c1nnn(CC(=O)N2CCCc3ccccc32)n1)c1cccc(Cl)c1"
  unit.abbreviation: "%"
  inhibition: 9.4
- compound: "Cn1cnc([N+](=O)[O-])c1Sc1ccccc1"
  unit.abbreviation: "%"
  inhibition: 7
- compound: "CSc1nc(N(C)NC(=O)c2cccc(C)c2)c2ccccc2n1"
  unit.abbreviation: "%"
  inhibition: 34.2
- compound: "CN(C)/C=C(\\C#N)C(=O)c1cccnc1Oc1ccc(F)cc1F"
  unit.abbreviation: "%"
  inhibition: 5.5
- compound: "Cc1ccc(-n2nc(N)c3c(=O)oc(N(C)C)nc32)cc1"
  unit.abbreviation: "%"
  inhibition: -5.7
- compound: "CONC(=O)c1cc(OCC(F)(F)F)ccc1OCC(F)(F)F"
  unit.abbreviation: "%"
  inhibition: 4.4
- compound: "N#C/C(=C/c1ccc(Cl)cc1)NC(=O)c1ccccc1"
  unit.abbreviation: "%"
  inhibition: 0.7
- compound: "CC(C)CNS(=O)(=O)c1ccc(OCC(=O)Nc2ccc3c(c2)OCO3)c(Cl)c1"
  unit.abbreviation: "%"
  inhibition: -10.8
- compound: "COC(CNC(=O)Cn1ncc2ccsc2c1=O)OC"
  unit.abbreviation: "%"
  inhibition: -11.2
- compound: "Cn1c(CO)cnc1SCc1ccccc1"
  unit.abbreviation: "%"
  inhibition: -4.6
- compound: "Cc1nc(N2CCOCC2)nc2c1CCCC2"
  unit.abbreviation: "%"
  inhibition: 1.7
- compound: "Cc1noc(C)c1CSCC(=O)Nc1nc2ccc(Oc3ccccc3)cc2s1"
  unit.abbreviation: "%"
  inhibition: -3.4
- compound: "COc1ccc(NC(=O)CSc2nc(NS(=O)(=O)c3ccc(C)cc3)cc(=O)[nH]2)cc1"
  unit.abbreviation: "%"
  inhibition: 0.1
- compound: "CCN(CC)C(=O)CSc1nc2ccccc2o1"
  unit.abbreviation: "%"
  inhibition: -3.4
- compound: "CC(C)(CNC(=O)c1cc(=O)[nH]c2ccccc12)N1CCOCC1"
  unit.abbreviation: "%"
  inhibition: 31
- compound: "c1ccc(COc2ccccc2CNCc2cccnc2)cc1"
  unit.abbreviation: "%"
  inhibition: -12.3
- compound: "CN(C(=O)CSc1nc(C2CC2)nc2ccccc12)c1nc(-c2ccccc2)cs1"
  unit.abbreviation: "%"
  inhibition: 6.8
- compound: "CCC1(C)Cc2c(sc3[nH]c(=S)n(Cc4ccccc4)c(=O)c23)CO1 (configuration not stated)"
  unit.abbreviation: "%"
  inhibition: -4.8
- compound: "Cc1cc(=O)oc2cc(OC(C)C(=O)Nc3ccc(N4CCOCC4)cc3)ccc12 (configuration not stated)"
  unit.abbreviation: "%"
  inhibition: 22.6
- compound: "Cn1c(CC(=O)Nc2ccccc2)nnc1SCC(=O)c1ccccc1"
  unit.abbreviation: "%"
  inhibition: 92
- compound: "O=C(Oc1ccc([N+](=O)[O-])cc1)c1ccc2ccccc2n1"
  unit.abbreviation: "%"
  inhibition: 1.7
- compound: "CC(C)NC(=O)C(=O)N/N=C/c1ccco1"
  unit.abbreviation: "%"
  inhibition: -6.9
- compound: "Cc1cc(C)c2nc(NC(=O)c3ccc4c(c3)OCO4)sc2c1"
  unit.abbreviation: "%"
  inhibition: 9
- compound: "COc1ccc(OC)c(S(=O)(=O)Nc2ccccc2F)c1"
  unit.abbreviation: "%"
  inhibition: -16.7
- compound: "CC(C)n1c(-c2cccs2)nc2ccccc21"
  unit.abbreviation: "%"
  inhibition: -4.4
- compound: "COc1ccccc1OCc1nc2ccccc2s1"
  unit.abbreviation: "%"
  inhibition: 9.7
- compound: "COc1ccc(C(=O)Oc2cc(/C=N/NS(=O)(=O)c3ccc(C)cc3)ccc2OC)cc1"
  unit.abbreviation: "%"
  inhibition: -13.4
- compound: "O=C(NCCc1ccccc1)c1ccc(NC2=NC3CS(=O)(=O)CC3S2)cc1 (configuration not stated)"
  unit.abbreviation: "%"
  inhibition: 0.8
- compound: "CN(C)c1ccnc(Oc2ccc(F)cc2)c1C#N"
  unit.abbreviation: "%"
  inhibition: -4.4
- compound: "CCc1ccccc1NC(=O)CSc1nnc([C@@H](NC(=O)OC(C)(C)C)C(C)CC)o1 (some centres not stated)"
  unit.abbreviation: "%"
  inhibition: -19.4
- compound: "N/C(=N\\OC(=O)c1cc(-c2ccccc2)nc2ccccc12)c1ccncc1"
  unit.abbreviation: "%"
  inhibition: 8
- compound: "S=c1[nH]nc(-c2ccco2)n1/N=C/c1ccc(Br)s1"
  unit.abbreviation: "%"
  inhibition: -1.5
- compound: "CCOc1ccc(S(=O)(=O)Nc2nc3cc(OC)ccc3s2)cc1"
  unit.abbreviation: "%"
  inhibition: -6
- compound: "CCc1ccc(/C=N/NC(=O)c2ccc(OC3CCCC3)cc2)s1"
  unit.abbreviation: "%"
  inhibition: 0.3
- compound: "CCOC(=O)c1c(N=CN(C)C)c(C#N)c2n1CCCC2"
  unit.abbreviation: "%"
  inhibition: 10.8
- compound: "COc1ccc(S(=O)(=O)N2CCOCC2)c(C)c1C"
  unit.abbreviation: "%"
  inhibition: -1.9
- compound: "Cc1ccccc1NC(=O)Cc1nnc(SCC(=O)N2CCN(c3ccccc3)CC2)n1C"
  unit.abbreviation: "%"
  inhibition: -36.6
- compound: "O=C(NCc1ccccc1Cl)c1csc2c1CCCCC2"
  unit.abbreviation: "%"
  inhibition: 6.8
- compound: "c1ccc(-n2nc3ccccc3n2)cc1"
  unit.abbreviation: "%"
  inhibition: 18
- compound: "Cc1c(C(=O)CN2CCOCC2)[nH]c2ccccc12"
  unit.abbreviation: "%"
  inhibition: -7.9
- compound: "Cc1n[nH]c(=O)n1-c1ccc(Oc2ccccc2)cc1"
  unit.abbreviation: "%"
  inhibition: 3.9
- compound: "c1cncc(-c2nnc3n2C2(CCCCC2)Cc2ccccc2-3)c1"
  unit.abbreviation: "%"
  inhibition: -4.9
